# reported Kd; entries follow
- MEASUREMENT_TARGET: T1, recombinant human CD73 extracellular domain (Trp27-Lys546) with C-terminal 6-histidine tag (human, UniProt P21589 27-547)
- T1 construct: also called hCD73; hCD73-cHis
- T1 sequence: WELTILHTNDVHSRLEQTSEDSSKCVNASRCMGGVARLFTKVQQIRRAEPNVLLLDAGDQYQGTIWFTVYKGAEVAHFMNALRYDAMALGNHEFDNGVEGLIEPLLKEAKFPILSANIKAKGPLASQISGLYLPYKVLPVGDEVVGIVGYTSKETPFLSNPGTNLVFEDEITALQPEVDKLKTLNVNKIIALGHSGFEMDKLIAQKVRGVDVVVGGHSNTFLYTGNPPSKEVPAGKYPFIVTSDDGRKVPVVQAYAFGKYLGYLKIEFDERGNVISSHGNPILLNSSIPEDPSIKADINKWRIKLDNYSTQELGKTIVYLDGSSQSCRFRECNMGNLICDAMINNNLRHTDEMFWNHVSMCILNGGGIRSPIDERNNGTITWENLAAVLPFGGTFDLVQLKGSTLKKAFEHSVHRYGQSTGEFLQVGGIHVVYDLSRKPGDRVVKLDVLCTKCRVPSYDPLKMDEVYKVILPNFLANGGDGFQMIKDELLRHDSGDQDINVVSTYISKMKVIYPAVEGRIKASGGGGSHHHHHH
- PROCEDURE_SUMMARY: SPR, Biacore T200, antibody captured on Protein A chip, hCD73 ECD as analyte, 1:1 Langmuir
- Experimental: The affinity of CD73 antibody was determined by plasma surface resonance on Biacore T200. […] The affinity was fitted using Langmuir 1:1 Kinetic theoretical model and analyzed by Biacore T200 Evaluation Software (Table 3).
Report the figure in nM without appending any unit label.

Example entries and their recorded answers appear below.
CD73 antibody 6G8 (chimeric) (antibody, V domains shown, Mouse variable regions on human IgG heavy chain constant region and human kappa constant region (chimeric IgG); also called Clone 6G8; 6G8 Chimera) VH: QVTLKESGPGILKPSQTLSLTCSFSGFSLNTSGMGVGWIRQPSGKGLEWLAHIWWDDDKYYNPSLKSQLTISKDTSRNQVFLRIASVDTADTATYYCARRERWAWFAYWGQGTLVTVSA VL: DIVMTQSQKFMSASVGDRVSVTCKASQNVFTNVAWYQQKPGQSPKVLIYSASYRYSGVPDRFTGSGSGTDFTLTINNVQSEDLAEYFCQQYNSYPTFGSGTKLEIK :: 0.18
humanized anti-CD73 antibody 22C12 VH-v10/VL-v3 (antibody, V domains shown, Human IgG1 CH1-CH3 constant region and kappa constant region; also called hu22C12 VHv10 (printed hu22C12 Vilv10) + hu22C12 Vkv3) VH: QVQLVQSGAEVKKPGASVKVSCKASGYTFTGYWIQWVRQAPGQGLEWMGAIYPGDEDTRYTQKFQGRVTMTADTSISTAYMELSRLRSDDTAVYYCARGNWDDWDFDVWGQGTTVTVSS VL: DIQMTQSPSSLSASVGDRVTITCRASQDISNYLNWYQQKPGKAPKLLIHYTSRLHSGVPSRFSGSGSGTDFTLTISSLQPEDFATYYCQQGDTLPWTFGQGTKVEIK :: 0.0956

The record that follows has no Kd shown yet.
Summary for this binder, humanized anti-CD73 antibody 22C12 VH-v10/VL-v2 (antibody, V domains shown, Human IgG1 CH1-CH3 constant region and kappa constant region; also called hu22C12 VHv10 (printed hu22C12 Vilv10) + hu22C12 Vkv2) VH: QVQLVQSGAEVKKPGASVKVSCKASGYTFTGYWIQWVRQAPGQGLEWMGAIYPGDEDTRYTQKFQGRVTMTADTSISTAYMELSRLRSDDTAVYYCARGNWDDWDFDVWGQGTTVTVSS VL: DIQMTQSPSSLSASVGDRVTITCRASQDISNYLNWYQQKPGKAPKLLIHYTSRLHSGVPSRFSGSGSGTDYTLTISSLQPEDFATYYCQQGDTLPWTFGQGTKVEIK : Kd is 0.134
